Quick list: pEC50 per entry.
target: Cannabinoid receptor 1 (Homo sapiens, UniProt P21554)
Sequence (P21554 whole entry): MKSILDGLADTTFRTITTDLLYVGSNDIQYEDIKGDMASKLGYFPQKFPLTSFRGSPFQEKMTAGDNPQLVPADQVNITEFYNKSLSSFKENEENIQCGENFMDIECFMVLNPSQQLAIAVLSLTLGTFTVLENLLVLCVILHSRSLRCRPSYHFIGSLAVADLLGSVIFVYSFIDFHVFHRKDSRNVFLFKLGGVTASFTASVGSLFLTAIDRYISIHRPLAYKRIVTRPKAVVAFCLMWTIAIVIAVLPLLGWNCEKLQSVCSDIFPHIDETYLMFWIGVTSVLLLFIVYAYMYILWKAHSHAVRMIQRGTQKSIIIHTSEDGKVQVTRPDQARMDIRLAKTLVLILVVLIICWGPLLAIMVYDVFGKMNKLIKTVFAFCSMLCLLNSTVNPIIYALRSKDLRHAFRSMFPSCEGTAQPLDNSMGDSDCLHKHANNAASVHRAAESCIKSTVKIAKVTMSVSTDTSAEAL
assay_comment: Agonist activity at human CB1 receptor expressed in CHO cells assessed as stimulation of [3H]-arachidonic acid release
pEC50: −log10 of the molar value.
endpoint_label: pEC50

1. CCCCCn1cc(C(=O)Nc2ccc3ccccc3c2)c2ccccc21: < 6.00
2. COCCn1cc(C(=O)c2cccc3ccccc23)c2cccnc21: < 6.00
3. COCCn1cc(C(=O)c2cccc3ccccc23)c2ccncc21: < 6.00
